molecular target: Fibroblast growth factor receptor 1 (Homo sapiens, UniProt P11362); assay: Inhibition of human recombinant FGFR1
Sequence (P11362 whole entry): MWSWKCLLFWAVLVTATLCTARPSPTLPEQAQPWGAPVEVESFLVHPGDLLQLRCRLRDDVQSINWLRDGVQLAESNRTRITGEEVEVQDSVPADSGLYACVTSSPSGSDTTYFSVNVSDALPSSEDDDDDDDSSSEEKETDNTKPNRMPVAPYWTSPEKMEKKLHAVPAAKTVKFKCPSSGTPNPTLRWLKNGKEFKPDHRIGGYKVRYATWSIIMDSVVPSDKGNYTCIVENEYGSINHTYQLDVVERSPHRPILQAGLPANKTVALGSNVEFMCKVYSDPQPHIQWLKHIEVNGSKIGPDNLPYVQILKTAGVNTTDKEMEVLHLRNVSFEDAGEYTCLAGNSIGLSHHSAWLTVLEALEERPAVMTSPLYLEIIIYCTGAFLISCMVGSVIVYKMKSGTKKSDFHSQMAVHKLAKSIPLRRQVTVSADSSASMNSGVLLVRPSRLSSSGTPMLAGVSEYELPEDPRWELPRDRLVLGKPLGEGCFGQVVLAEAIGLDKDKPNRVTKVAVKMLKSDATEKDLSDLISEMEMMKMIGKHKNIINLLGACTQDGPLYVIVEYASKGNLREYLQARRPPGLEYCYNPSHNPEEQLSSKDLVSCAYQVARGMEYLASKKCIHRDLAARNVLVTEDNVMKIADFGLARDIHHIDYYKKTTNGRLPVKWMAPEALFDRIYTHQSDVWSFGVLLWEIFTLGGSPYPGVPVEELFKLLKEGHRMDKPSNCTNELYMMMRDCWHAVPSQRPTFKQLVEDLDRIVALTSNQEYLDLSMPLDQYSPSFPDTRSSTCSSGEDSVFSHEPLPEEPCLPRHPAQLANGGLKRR
Catalogue of compounds with associated pIC50
Scale explanation: pIC50 corresponds to minus log10 of a concentration expressed in moles per litre.

Solved cases (4 shown):
CCC1CCN(C)C(Nc2c(-c3nc4ccccc4[nH]3)c(=O)[nH]c3ccccc23)C1 (stereo not given)    6.72
CN(C)CC(=O)N(C)c1ccc2[nH]c(-c3c(N)c4ccccc4[nH]c3=O)nc2c1    8.52
CN1CCN(c2ccc3[nH]c(-c4c(N)c5c(Cl)cccc5[nH]c4=O)nc3c2)CC1    8.70
CN1CCN(c2cccc3[nH]c(=O)c(-c4nc5ccccc5[nH]4)c(N)c23)CC1    9.00

Requested field: pIC50. Item: CN1CCN(c2ccc3nc(-c4c(N)c5ccc(F)cc5[nH]c4=O)[nH]c3c2)CC1 8.52
